Target: Histamine H3 receptor (Homo sapiens, UniProt Q9Y5N1)
Sequence (Q9Y5N1 whole entry): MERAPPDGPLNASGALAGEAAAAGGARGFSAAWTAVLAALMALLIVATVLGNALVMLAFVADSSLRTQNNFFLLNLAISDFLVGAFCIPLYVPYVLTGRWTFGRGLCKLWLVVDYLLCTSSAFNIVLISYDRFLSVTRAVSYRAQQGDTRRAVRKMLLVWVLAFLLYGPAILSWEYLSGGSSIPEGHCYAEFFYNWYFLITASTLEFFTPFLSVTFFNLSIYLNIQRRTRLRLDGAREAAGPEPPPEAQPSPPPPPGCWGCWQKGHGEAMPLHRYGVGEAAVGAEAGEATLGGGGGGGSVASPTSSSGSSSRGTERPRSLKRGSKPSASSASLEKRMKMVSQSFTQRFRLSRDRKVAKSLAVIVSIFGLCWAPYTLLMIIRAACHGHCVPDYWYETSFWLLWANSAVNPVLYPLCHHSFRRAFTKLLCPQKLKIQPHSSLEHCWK
Assay: Antagonist activity at human H3 receptor expressed in CHO cells assessed as inhibition of histamine-induced GTPgamma[S] binding by scintillation proximity assay
pKi: −log10 of the molar value.
TEST READOUT: pKi

>>> observed("CN1CCCC(n2nc(Cc3ccc(Cl)cc3)c3ccccc3c2=O)CC1 (stereo not drawn)")
6.83
>>> observed("CCCCN1CCC[C@@H]1Cn1nc(Cc2ccc(Cl)cc2)c2cnccc2c1=O")
6.20
>>> observed("CCCCN1CCC[C@@H]1Cn1nc(Cc2ccc(Cl)cc2)c2cccnc2c1=O")
6.20
>>> observed("COCCN1CCC[C@@H]1Cn1nc(Cc2ccc(Cl)cc2)c2ccccc2c1=O")
6.40
>>> observed("COCCN1CCC[C@@H]1Cn1nc(Cc2ccc(Cl)cc2)c2cccnc2c1=O")
6.20
>>> observed("CN1CCC[C@@H]1Cn1nc(Cc2ccc(Cl)cc2)c2nccnc2c1=O")
6.20
>>> observed("CCCCN1CCC[C@@H]1Cn1nc(Cc2ccc(Cl)cc2)c2ncccc2c1=O")
6.20
>>> observed("O=c1c2ccncc2c(Cc2ccc(Cl)cc2)nn1C[C@H]1CCCN1CCCCc1ccc(OCCCN2CCCCCC2)cc1")
9.25
>>> observed("CN1CCC[C@@H]1Cn1nc(Cc2ccc(Cl)cc2)c2ncccc2c1=O")
6.50
>>> observed("CCCCN1CCC[C@@H]1Cn1nc(Cc2ccc(Cl)cc2)c2ccccc2c1=O")
6.36
>>> observed("CN1CCC[C@@H]1Cn1nc(Cc2ccc(Cl)cc2)c2ccncc2c1=O")
6.40
>>> observed("CN1CCC[C@@H]1Cn1nc(Cc2ccc(Cl)cc2)c2cnccc2c1=O")
6.40
>>> observed("CN1CCC[C@@H]1Cn1nc(Cc2ccc(Cl)cc2)c2ccccc2c1=O")
6.36

---

Assay: Lipophilicity, log D of compound at pH 7.4
Format: physicochemical
Details: buffer
TEST READOUT: logD

>>> observed("COCCN1CCC[C@@H]1Cn1nc(Cc2ccc(Cl)cc2)c2cccnc2c1=O")
2.1
>>> observed("CN1CCC[C@@H]1Cn1nc(Cc2ccc(Cl)cc2)c2nccnc2c1=O")
1.7
>>> observed("CN1CCC[C@@H]1Cn1nc(Cc2ccc(Cl)cc2)c2ccccc2c1=O")
3
>>> observed("CCCCN1CCC[C@@H]1Cn1nc(Cc2ccc(Cl)cc2)c2cnccc2c1=O")
3.2
>>> observed("COCCN1CCC[C@@H]1Cn1nc(Cc2ccc(Cl)cc2)c2ncccc2c1=O")
2.9
>>> observed("CN1CCC[C@@H]1Cn1nc(Cc2ccc(Cl)cc2)c2cccnc2c1=O")
1.7
>>> observed("COCCN1CCC[C@@H]1Cn1nc(Cc2ccc(Cl)cc2)c2cnccc2c1=O")
2.7
>>> observed("O=c1c2ccccc2c(Cc2ccc(Cl)cc2)nn1C[C@H]1CCCN1CCCCc1ccc(OCCCN2CCCCCC2)cc1 [GSK-1004723]")
3.2
>>> observed("CN1CCCC(n2nc(Cc3ccc(Cl)cc3)c3ccccc3c2=O)CC1 (stereo unspecified) [AZELASTINE]")
2.3
>>> observed("CN1CCC[C@@H]1Cn1nc(Cc2ccc(Cl)cc2)c2ncccc2c1=O")
2.7
>>> observed("CCCCN1CCC[C@@H]1Cn1nc(Cc2ccc(Cl)cc2)c2ncccc2c1=O")
3.4

---

Biological target: Histamine H1 receptor (Homo sapiens)
Sequence (P35367 whole entry): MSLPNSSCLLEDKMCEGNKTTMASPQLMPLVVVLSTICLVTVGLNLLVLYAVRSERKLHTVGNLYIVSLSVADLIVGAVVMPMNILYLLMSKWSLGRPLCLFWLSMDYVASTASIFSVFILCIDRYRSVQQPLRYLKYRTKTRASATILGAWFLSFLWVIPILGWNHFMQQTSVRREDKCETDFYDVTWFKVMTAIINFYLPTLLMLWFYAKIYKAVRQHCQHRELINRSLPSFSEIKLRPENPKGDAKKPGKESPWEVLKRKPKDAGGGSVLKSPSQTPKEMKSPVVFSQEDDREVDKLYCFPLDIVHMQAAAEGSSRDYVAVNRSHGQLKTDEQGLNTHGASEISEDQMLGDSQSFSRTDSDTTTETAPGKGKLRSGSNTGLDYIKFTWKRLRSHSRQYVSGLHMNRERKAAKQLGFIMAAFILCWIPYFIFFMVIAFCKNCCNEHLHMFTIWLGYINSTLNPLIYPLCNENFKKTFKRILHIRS
Assay: Antagonist activity at human H1 receptor expressed in CHO cells assessed as inhibition of calcium mobilization by FLIPR assay
A collection of compounds and their measured Ki
TEST READOUT: Ki (pM)

>>> observed("CN1CCC[C@@H]1Cn1nc(Cc2ccc(Cl)cc2)c2ccncc2c1=O")
692
>>> observed("COCCN1CCC[C@@H]1Cn1nc(Cc2ccc(Cl)cc2)c2ccccc2c1=O")
513
>>> observed("COCCN1CCC[C@@H]1Cn1nc(Cc2ccc(Cl)cc2)c2cnccc2c1=O")
251
>>> observed("CN1CCC[C@@H]1Cn1nc(Cc2ccc(Cl)cc2)c2cnccc2c1=O")
347
>>> observed("CN1CCC[C@@H]1Cn1nc(Cc2ccc(Cl)cc2)c2ccccc2c1=O")
162
>>> observed("CCCCN1CCC[C@@H]1Cn1nc(Cc2ccc(Cl)cc2)c2cccnc2c1=O")
631
>>> observed("CN1CCC[C@@H]1Cn1nc(Cc2ccc(Cl)cc2)c2ncccc2c1=O")
316
>>> observed("CN1CCC[C@@H]1Cn1nc(Cc2ccc(Cl)cc2)c2nccnc2c1=O")
1290
>>> observed("COCCN1CCC[C@@H]1Cn1nc(Cc2ccc(Cl)cc2)c2ncccc2c1=O")
537
>>> observed("O=c1c2ccncc2c(Cc2ccc(Cl)cc2)nn1C[C@H]1CCCN1CCCCc1ccc(OCCCN2CCCCCC2)cc1")
17400
>>> observed("CCCCN1CCC[C@@H]1Cn1nc(Cc2ccc(Cl)cc2)c2cnccc2c1=O")
398
>>> observed("CCCCN1CCC[C@@H]1Cn1nc(Cc2ccc(Cl)cc2)c2ncccc2c1=O")
631
>>> observed("COCCN1CCC[C@@H]1Cn1nc(Cc2ccc(Cl)cc2)c2cccnc2c1=O")
1000
>>> observed("CN1CCC[C@@H]1Cn1nc(Cc2ccc(Cl)cc2)c2cccnc2c1=O")
355
>>> observed("CCCCN1CCC[C@@H]1Cn1nc(Cc2ccc(Cl)cc2)c2ccccc2c1=O")
912

---

Target: Histamine H1 receptor (Homo sapiens)
Assay: Antagonist activity against human CHO cells H1 receptor at 100 nM after 30 mins by FLIPR assay
Format: functional, cell-based
Settings: read-out: pA2 (converted)
A collection of compounds and their measured Kb
TEST READOUT: Kb (nM)

>>> observed("CN1CCC[C@@H]1Cn1nc(Cc2ccc(Cl)cc2)c2cnccc2c1=O")
0.316
>>> observed("CN1CCC[C@@H]1Cn1nc(Cc2ccc(Cl)cc2)c2ccncc2c1=O")
2.51
>>> observed("COCCN1CCC[C@@H]1Cn1nc(Cc2ccc(Cl)cc2)c2cnccc2c1=O")
0.251
>>> observed("CCCCN1CCC[C@@H]1Cn1nc(Cc2ccc(Cl)cc2)c2cccnc2c1=O")
0.316
>>> observed("CN1CCC[C@@H]1Cn1nc(Cc2ccc(Cl)cc2)c2ncccc2c1=O")
0.316
>>> observed("COCCN1CCC[C@@H]1Cn1nc(Cc2ccc(Cl)cc2)c2cccnc2c1=O")
0.794
>>> observed("CCCCN1CCC[C@@H]1Cn1nc(Cc2ccc(Cl)cc2)c2ccccc2c1=O")
0.0398
>>> observed("CN1CCC[C@@H]1Cn1nc(Cc2ccc(Cl)cc2)c2ccccc2c1=O")
0.1
>>> observed("CN1CCC[C@@H]1Cn1nc(Cc2ccc(Cl)cc2)c2nccnc2c1=O")
3.98
>>> observed("O=c1c2ccncc2c(Cc2ccc(Cl)cc2)nn1C[C@H]1CCCN1CCCCc1ccc(OCCCN2CCCCCC2)cc1")
1
>>> observed("CCCCN1CCC[C@@H]1Cn1nc(Cc2ccc(Cl)cc2)c2cnccc2c1=O")
0.1
>>> observed("CN1CCC[C@@H]1Cn1nc(Cc2ccc(Cl)cc2)c2cccnc2c1=O")
0.501

---

A collection of compounds and their measured pKi
Target: Alpha-1A adrenergic receptor (Homo sapiens)
Sequence (P35348 whole entry): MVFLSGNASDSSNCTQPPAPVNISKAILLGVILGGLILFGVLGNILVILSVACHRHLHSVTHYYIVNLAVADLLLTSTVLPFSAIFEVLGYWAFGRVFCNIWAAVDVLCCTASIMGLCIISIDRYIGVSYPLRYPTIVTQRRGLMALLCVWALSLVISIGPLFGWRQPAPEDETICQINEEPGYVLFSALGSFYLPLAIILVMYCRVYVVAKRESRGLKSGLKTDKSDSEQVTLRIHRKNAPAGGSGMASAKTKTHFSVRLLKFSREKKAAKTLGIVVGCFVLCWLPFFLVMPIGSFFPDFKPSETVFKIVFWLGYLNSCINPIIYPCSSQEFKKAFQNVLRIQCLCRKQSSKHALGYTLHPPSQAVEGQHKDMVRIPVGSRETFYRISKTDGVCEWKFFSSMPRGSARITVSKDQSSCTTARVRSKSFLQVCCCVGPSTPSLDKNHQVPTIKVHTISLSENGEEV
Experiment: Antagonist activity at human adrenergic alpha1A receptor expressed in rat fibroblasts by plate-based calcium imaging
pKi: −log10 of the molar value.
TEST READOUT: pKi

>>> observed("CN1CCC[C@@H]1Cn1nc(Cc2ccc(Cl)cc2)c2ccccc2c1=O")
7.50
>>> observed("CCCCN1CCC[C@@H]1Cn1nc(Cc2ccc(Cl)cc2)c2ncccc2c1=O")
7.30
>>> observed("CCCCN1CCC[C@@H]1Cn1nc(Cc2ccc(Cl)cc2)c2cnccc2c1=O")
8.20
>>> observed("COCCN1CCC[C@@H]1Cn1nc(Cc2ccc(Cl)cc2)c2ncccc2c1=O")
6.80
>>> observed("CN1CCC[C@@H]1Cn1nc(Cc2ccc(Cl)cc2)c2nccnc2c1=O")
6.40
>>> observed("COCCN1CCC[C@@H]1Cn1nc(Cc2ccc(Cl)cc2)c2ccccc2c1=O")
7.70
>>> observed("COCCN1CCC[C@@H]1Cn1nc(Cc2ccc(Cl)cc2)c2cccnc2c1=O")
6.50
>>> observed("CCCCN1CCC[C@@H]1Cn1nc(Cc2ccc(Cl)cc2)c2cccnc2c1=O")
7.00
>>> observed("O=c1c2ccncc2c(Cc2ccc(Cl)cc2)nn1C[C@H]1CCCN1CCCCc1ccc(OCCCN2CCCCCC2)cc1")
7.50
>>> observed("CN1CCC[C@@H]1Cn1nc(Cc2ccc(Cl)cc2)c2cnccc2c1=O")
7.90
>>> observed("CN1CCC[C@@H]1Cn1nc(Cc2ccc(Cl)cc2)c2ccncc2c1=O")
7.70
>>> observed("CN1CCC[C@@H]1Cn1nc(Cc2ccc(Cl)cc2)c2cccnc2c1=O")
6.20
>>> observed("CN1CCC[C@@H]1Cn1nc(Cc2ccc(Cl)cc2)c2ncccc2c1=O")
6.70
